Source: patent US11976075B2

experimentalSystem: Recombinant KAT6A/MOZ (488-778) protein (Homo sapiens, UniProt Q92794)
Construct: Recombinant KAT6A/MOZ (488-778) protein (Active motif, Catalog #81223); purchased Active Motif 81223
Sequence (Q92794 488-778): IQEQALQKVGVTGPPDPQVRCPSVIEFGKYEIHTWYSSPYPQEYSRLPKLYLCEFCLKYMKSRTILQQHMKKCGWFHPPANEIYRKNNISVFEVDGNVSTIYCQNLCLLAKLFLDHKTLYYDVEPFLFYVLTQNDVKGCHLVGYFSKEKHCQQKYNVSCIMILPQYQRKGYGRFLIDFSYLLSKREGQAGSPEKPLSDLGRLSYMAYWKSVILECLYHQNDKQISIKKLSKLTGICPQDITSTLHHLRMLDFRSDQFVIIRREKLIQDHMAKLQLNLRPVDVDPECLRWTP
assayText: Kat6a AlphaLISA Inhibition Screening Assay
Format: biochemical
testContext: 60′ pre-incubation; Table 2; read-out: Kat6A biochemical assay: IC50
measureName: IC50

Worked examples follow.
molecule | measuredValue
C=CS(=O)(=O)N1Cc2cnn(Cc3cc(OC)c4c(NS(=O)(=O)c5ccccc5OC)noc4c3)c2C1 [Synthetic Example 27A] | ≤ 10 µM
COc1ccccc1S(=O)(=O)Nc1noc2cc(CN3CCC(C(=O)NCC#N)C3)cc(OC)c12 (stereo not shown) [Synthetic Example 67] | > 10 µM
C=CS(=O)(=O)NCc1ccn(Cc2cc(OC)c3c(NS(=O)(=O)c4c(OC)cccc4OC)noc3c2)n1 [Synthetic Example 19] | ≤ 10 µM

(Q) What IC50 appears in the records for this molecule with Recombinant KAT6A/MOZ (488-778) protein (Homo sapiens, UniProt Q92794)? C=CC(=O)N1CCN(c2ccccc2-c2cc(OC)c3c(NS(=O)(=O)c4c(OC)cccc4OC)noc3c2)CC1 [Synthetic Example 58]
(A) ≤ 10 µM

###

A collection of compounds and their measured pIC50
experimentalSystem: Recombinant KAT6A/MOZ (488-778) protein (Homo sapiens, UniProt Q92794)
Construct: Recombinant KAT6A/MOZ (488-778) protein (Active motif, Catalog #81223); purchased Active Motif 81223
assayText: Kat6a AlphaLISA Inhibition Screening Assay
Format: biochemical
testContext: 10′ pre-incubation; Table 3; read-out: Kat6A Biochemical assay: IC50
Method: The Kat6a inhibitory activity of test compounds was determined using an Alpha Screen-based detection method. The assay reactions were conducted in a volume of 10 μL in Alpha Plate, White 384 well plate (cat #6008280, Perkin Elmer). The enzymatic reactions were performed in assay buffer pH 8.0 (50 mM Tris-HCl, 0.1 mM EDTA, 0.01% Tween-20, 1 mM Dithiothreitol, 0.1% BSA (fatty acid free) and 330 nM TSA (Trichostatin A)). […]
pIC50: −log10 of the molar value.

Worked examples follow.
compound | pIC50
COc1cc(Cn2cccn2)cc2[nH]nc(NS(=O)(=O)c3ccccc3F)c12 [compound 124] | 4.30 to 4.70
COc1cc(Cn2cc(CN)cn2)cc2onc(NS(=O)(=O)CC3CCCCC3)c12 [compound 130] | ≥ 5.00
COc1cc(Cn2cccn2)cc2c1c(NS(=O)(=O)CC1CCCCC1)nn2C [compound 121] | 4.70 to 5.00
COc1cc(Cn2cccn2)cc2c1c(NS(=O)(=O)c1ccccc1F)nn2C [compound 122] | 4.30 to 4.70

(Q) What does the record list as pIC50 for CCC(=O)NCc1ccn(Cc2cc(OC)c3c(NS(=O)(=O)CC4CCCCC4)noc3c2)n1 [compound 129] ?
(A) ≥ 5.00

(Q) What does the record list as pIC50 for COc1cc(Cn2cc(C#N)cn2)cc2onc(NS(=O)(=O)CC3CCCCC3)c12 [compound 126] ?
(A) ≥ 5.00

(Q) What does the record list as pIC50 for COc1cc(Cn2ccc(CN)n2)cc2onc(NS(=O)(=O)CC3CCCCC3)c12 [compound 128] ?
(A) 4.30 to 4.70

(Q) What does the record list as pIC50 for COc1cccc(OC)c1S(=O)(=O)Nc1nn(C)c2cc(Cn3cccn3)cc(OC)c12 [compound 123] ?
(A) 4.70 to 5.00

(Q) What does the record list as pIC50 for COc1cc(Cn2cccn2)cc2nnc(NS(=O)(=O)CC3CCCCC3)n12 [compound 127] ?
(A) ≥ 5.00

(Q) What does the record list as pIC50 for COc1cccc(OC)c1S(=O)(=O)Nc1n[nH]c2cc(Cn3cccn3)cc(OC)c12 [compound 125] ?
(A) ≥ 5.00

###

experimentalSystem: Recombinant KAT6A/MOZ (488-778) protein (Homo sapiens, UniProt Q92794)
Construct: Recombinant KAT6A/MOZ (488-778) protein (Active motif, Catalog #81223); purchased Active Motif 81223
assayText: Kat6a AlphaLISA Inhibition Screening Assay
Type: biochemical
testContext: 10′ pre-incubation; Table 2; read-out: Kat6A biochemical assay: IC50
measureName: IC50

compound | IC50
C#CC(=O)NCc1ccc2cc(C(=O)NS(=O)(=O)c3ccccc3F)oc2c1 [Synthetic Example 11] | 20 to 50 µM
C#CC(=O)NCc1ccn(Cc2cc(OC)c3c(NS(=O)(=O)CC4CCCCC4)noc3c2)n1 [Synthetic Example 8] | ≤ 10 µM
C=CC(=O)NCC(=O)NCc1ccc2cc(C(=O)NS(=O)(=O)c3ccccc3F)oc2c1 [Synthetic Example 39] | 20 to 50 µM
C=CC(=O)NCc1ccnc(-c2cc(C)cc(C(=O)NNS(=O)(=O)c3ccccc3F)c2)c1 | ≤ 10 µM

(Q) What does the record list as IC50 for CCC(=O)NCc1ccn(Cc2cc(OC)c3c(NS(=O)(=O)CC4CCCCC4)noc3c2)n1 [Synthetic Example 9] ?
(A) ≤ 10 µM

###

experimentalSystem: Recombinant KAT6A/MOZ (488-778) protein (Homo sapiens)
Construct: Recombinant KAT6A/MOZ (488-778) protein (Active motif, Catalog #81223); purchased Active Motif 81223
assayText: Kat6a AlphaLISA Inhibition Screening Assay
Format: biochemical
testContext: 10′ pre-incubation; Table 2; read-out: Kat6A biochemical assay: IC50
pIC50: −log10 of the molar value.
A collection of compounds and their measured pIC50

(Q) What does the record list as pIC50 for C=CC(=O)NCc1ccc2cc(C(=O)NS(=O)(=O)c3ccccc3F)oc2c1 [Synthetic Example 10] ?
(A) ≥ 5.00

(Q) What does the record list as pIC50 for C=CC(=O)N1CCC(C(=O)NCc2ccc3cc(C(=O)NS(=O)(=O)c4ccccc4F)oc3c2)CC1 [Synthetic Example 14] ?
(A) 4.30 to 4.70

(Q) What does the record list as pIC50 for C=CC(=O)N1CCC(C(=O)NCc2ccc3cc(C(=O)NS(=O)(=O)c4ccccc4F)oc3c2)C1 (stereo not shown) [Synthetic Example 40] ?
(A) < 4.00

(Q) What does the record list as pIC50 for C#CC(=O)NCc1ccnc(-c2cc(C)cc(C(=O)NNS(=O)(=O)c3ccccc3F)c2)c1 ?
(A) ≥ 5.00
